- Test system: EKVX
- MEASUREMENT_NOTES: NCI tumour cell line growth inhibition, 48 h
Calls of active or inactive are those of the source. Cut-off read from the data, not from the text of the source: active = GI50 up to about 1.1 µM and inactive = higher.
A correct response names exactly one class from y = active, n = inactive

input: Dear colleague, could you share the recorded outcome for `O=C1/C(=C/c2ccccc2)CN(C(=O)CCN2CCOCC2)C/C1=C\c1ccccc1` when you have a moment?
output: n

input: Cool, now `O=C1CSCC(=O)Nc2ccccc2N1`
output: n

input: Cool, now CCC(c1ccccc1)c1cc(C(C)(C)C)cc(C(C)(C)C)c1O (configuration not stated)
output: n

input: Cool, now `CN(CCCNc1ccc2ncn3c4ccccc4c(=O)c1c23)CCCN1C(=O)c2cccc3cc([N+](=O)[O-])cc(c23)C1=O`
output: y

input: Cool, now `O=[N+]([O-])c1ccc(CSc2nn(Cc3ccc([N+](=O)[O-])cc3)cc3ncnc2-3)cc1`
output: n

Others:
input: Dear colleague, could you share the recorded outcome for `CCOC(=O)C(CCSC)(CCSC)C(=O)OCC` when you have a moment?
output: n

input: Cool, now `O=c1/c(=C/c2ccccc2O)sc2nc3ccccc3n12`
output: n

input: Cool, now `COc1ccc(C(=O)Nc2ccc3oc(-c4ccccc4)nc3c2)cc1`
output: n

input: Cool, now O=CN1CCN(CC(O)CN2CCCCC2)CC1 (configuration not stated)
output: n

input: Cool, now `c1ccc(COc2nc3cc(C45CC6CC(CC(C6)C4)C5)ccc3[nH]2)cc1`
output: n

input: Cool, now COC(=O)C1=C(O)C(C(=O)OC)[C@]2(O)[C@@H](C(=O)OC)[C@H]1[C@H](C)[C@@H](c1ccccc1)[C@@H]2C(=O)OC (some centres not stated)
output: n

input: Cool, now `Cc1ccc(-n2c(C)n[nH]c2=O)cc1`
output: n

input: Cool, now CCCCCCC(O)CC[C@H]1CCC[C@@H](C)N1 (some centres not stated)
output: n

input: Cool, now `O=S(=O)(N/N=C/c1ccc(/C=N/NS(=O)(=O)c2ccccc2)cc1)c1ccccc1`
output: n

input: Cool, now `Clc1ccc(/C=C/c2nc(Cl)c(-c3ccc(Cl)cc3)c(Cl)n2)cc1`
output: n

input: Cool, now CCCCN1CCC(O)(c2cc(C(=O)O)[nH]c2-c2cc(C)no2)C1=O (configuration not stated)
output: n

input: Cool, now C=C(C)C(=O)O[C@H]1CC2=C[C@@H](C[C@@]3(C)O[C@@H]3[C@H]3OC(=O)C(=C)[C@@H]31)OC2=O [ELEPHANTOPIN]
output: n

input: Cool, now `CC(C)(C)OC(=O)n1c(Cl)c(C=O)c2ccccc21`
output: n

input: Cool, now `Oc1cc(-c2ccco2)nc2cc3c(cc12)OCO3`
output: n

input: Cool, now `COc1ccc(/N=N/C(=N/NC(=O)c2ccc(C)cc2)c2ccc(N(CCC#N)CCC#N)cc2OC)cc1`
output: n

input: Cool, now `O=C1C(=O)c2ccccc2C=C1[N+](=O)[O-]`
output: n

input: Cool, now COC(=O)C1CCc2nnc(-c3ccccc3)n21 (configuration not stated)
output: n

---

- System: SK-MEL-28
- MEASUREMENT_NOTES: NCI tumour cell line growth inhibition, 48 h
The source made the active and inactive calls. No stated cut-off is given here; in the data, active = GI50 up to about 1.1 µM and inactive = higher.
VALUE_KIND: GI50

Example cases with answers are listed next.
input: Would you kindly share the measured GI50 for `COC(=O)C1=C(C)NC(C)=C(C(=O)OCCCN2CCC(c3ccccc3)(c3ccccc3)CC2)[C@H]1c1cccc([N+](=O)[O-])c1` ?
output: 1.88 µM (inactive)

input: Cool, now `N#C/C(=C\c1ccccc1Br)C(=O)c1ccccc1`
output: > 42.3 µM (inactive)

input: Cool, now `CCN(CC)C(=S)N/N=C(/C)c1cccc(/C(C)=N\NC(=S)N(CC)CC)n1`
output: 1.21 µM (inactive)

Others:
input: Would you kindly share the measured GI50 for `Brc1ccc2ns[s+]c2c1` ?
output: 11.9 µM (inactive)

input: Cool, now `CC(C)Oc1cccc(N2C(NCCc3c[nH]c4ccccc34)=Nc3ccncc3S2(=O)=O)c1`
output: 8.43 µM (inactive)

input: Cool, now CC1(C)COP(=S)(c2ccccn2)O[C@@H]1c1ccccc1 (stereo partly specified)
output: > 100 µM (inactive)
